These data points were gathered from ChEMBL document CHEMBL1201862.

Tested on: SN12C
Experiment: NCI tumour cell line growth inhibition, 48 h
Activity calls are given as the source filed them. Cut-off read from the data, not from the text of the source: active = GI50 up to about 1.1 µM and inactive = higher. Where a SMILES comes first, the peptide text is derived from it. [ ]: non-standard residue; d: D form. The star is where a group is joined. ξ: configuration not given here. ξNMe2Val = CC(C)C(C(=O)*)N(C)C; NMeV = CN[CH](C(=O)O)C(C)C; NHBn = c1ccc(CN*)cc1
endpoint label: GI50

These solved cases illustrate the format of a correct answer.
C[n+]1c(-c2ccc(/C=N/NC(=N)N/N=C/c3ccc(-c4cn5cc(Cl)ccc5[n+]4C)cc3)cc2)cn2cc(Cl)ccc21 = > 100 µM (inactive)
O=C(Nc1ccccc1[N+](=O)[O-])c1ccccc1 = > 100 µM (inactive)
COC(=O)/N=C(\NC(=O)OC)Nc1ccc(Oc2ccccc2)cc1NC=O = 1.58 µM (inactive)
CC(C)C(NC(=O)C(C(C)C)N(C)C)C(=O)N(C)C(C(=O)N1CCCC1C(=O)N1CCCC1C(=O)NCc1ccccc1)C(C)C (centres undefined) (ξNMe2Val-V[NMeV]PP-NHBn; configuration not given here) = < 0.0001 µM (active)
CN(C)CCCc1c[nH]c2ccccc12 = > 100 µM (inactive)

Now let's try a different one.
GI50 recorded for this compound, Cc1c2c(c(O)c3c(O)cccc13)C(=O)C1(O)C(=O)C(C(=O)NCNc3ccc(C(N)=O)cn3)=C(O)C(N(C)C)C1C2 (centres undefined) , is 4.78 µM (inactive)
